Target: hexahistidine (6His)-tagged KDM2B/SKP1 dimer (human, UniProt Q8NHM5 1059-1336; P63208 1-163)
Sequence (Q8NHM5 1059-1336, chain 1 of 2): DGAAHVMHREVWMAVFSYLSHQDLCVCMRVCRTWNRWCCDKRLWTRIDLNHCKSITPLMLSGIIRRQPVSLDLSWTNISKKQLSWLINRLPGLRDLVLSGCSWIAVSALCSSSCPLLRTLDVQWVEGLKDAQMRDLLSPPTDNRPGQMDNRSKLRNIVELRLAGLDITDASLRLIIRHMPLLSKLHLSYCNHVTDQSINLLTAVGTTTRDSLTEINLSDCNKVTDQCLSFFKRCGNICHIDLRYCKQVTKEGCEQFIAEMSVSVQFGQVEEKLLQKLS
Sequence (P63208 whole entry, chain 2 of 2): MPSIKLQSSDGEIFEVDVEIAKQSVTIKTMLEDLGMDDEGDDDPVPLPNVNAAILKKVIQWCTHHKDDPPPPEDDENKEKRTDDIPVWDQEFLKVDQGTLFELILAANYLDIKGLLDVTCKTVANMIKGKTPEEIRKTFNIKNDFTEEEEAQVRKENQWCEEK
Assay: BLI
measurementLabel: pKd
Please express pKd as -log10 of the molar concentration.

binder: PCGF1 RAWUL (150–259)/BCOR PUFD dimer (complex, human) chain 1: LPFSSFDHSKAHYYRYDEQLNLCLERLSSGKDKNKSVLQNKYVRCSVRAEVRHLRRVLCHRLMLNPQHVQLLFDNEVLPDHMTMKQIWLSRWFGKPSPLLLQYSVKEKRR chain 2: SDVFEFEFSETPLLPCYNIQVSVAQGPRNWLLLSDVLKKLKMSSRIFRCNFPNVEIVTIAEAEFYRQVSASLLFSCSKDLEAFNPESKELLDLVEFTNEIQTLLGSSVEWLHPSD
quantitativeResult: 4.37
//
binder: PCGF1 RAWUL (150–259)/BCOR 1593–1748 dimer (complex, human) chain 1: LPFSSFDHSKAHYYRYDEQLNLCLERLSSGKDKNKSVLQNKYVRCSVRAEVRHLRRVLCHRLMLNPQHVQLLFDNEVLPDHMTMKQIWLSRWFGKPSPLLLQYSVKEKRR chain 2: DASGTWDFYGSSVCEPDDESGYDVLANPPGPEDQDDDDDAYSDVFEFEFSETPLLPCYNIQVSVAQGPRNWLLLSDVLKKLKMSSRIFRCNFPNVEIVTIAEAEFYRQVSASLLFSCSKDLEAFNPESKELLDLVEFTNEIQTLLGSSVEWLHPSD
quantitativeResult: 6.97

For the next question, use this binder.
# query: pKd of entry PCGF1 RAWUL (150–259)/BCOR PUFD Leu1705Gln dimer (complex, human) chain 1: LPFSSFDHSKAHYYRYDEQLNLCLERLSSGKDKNKSVLQNKYVRCSVRAEVRHLRRVLCHRLMLNPQHVQLLFDNEVLPDHMTMKQIWLSRWFGKPSPLLLQYSVKEKRR chain 2: SDVFEFEFSETPLLPCYNIQVSVAQGPRNWLLLSDVLKKLKMSSRIFRCNFPNVEIVTIAEAEFYRQVSASQLFSCSKDLEAFNPESKELLDLVEFTNEIQTLLGSSVEWLHPSD
7.49

// data source = paper PMC8544800
